# target_system: human DGKζ (Homo sapiens (Human), UniProt Q13574)
# Sequence (Q13574 other isoform, or with tags, fused parts or gaps): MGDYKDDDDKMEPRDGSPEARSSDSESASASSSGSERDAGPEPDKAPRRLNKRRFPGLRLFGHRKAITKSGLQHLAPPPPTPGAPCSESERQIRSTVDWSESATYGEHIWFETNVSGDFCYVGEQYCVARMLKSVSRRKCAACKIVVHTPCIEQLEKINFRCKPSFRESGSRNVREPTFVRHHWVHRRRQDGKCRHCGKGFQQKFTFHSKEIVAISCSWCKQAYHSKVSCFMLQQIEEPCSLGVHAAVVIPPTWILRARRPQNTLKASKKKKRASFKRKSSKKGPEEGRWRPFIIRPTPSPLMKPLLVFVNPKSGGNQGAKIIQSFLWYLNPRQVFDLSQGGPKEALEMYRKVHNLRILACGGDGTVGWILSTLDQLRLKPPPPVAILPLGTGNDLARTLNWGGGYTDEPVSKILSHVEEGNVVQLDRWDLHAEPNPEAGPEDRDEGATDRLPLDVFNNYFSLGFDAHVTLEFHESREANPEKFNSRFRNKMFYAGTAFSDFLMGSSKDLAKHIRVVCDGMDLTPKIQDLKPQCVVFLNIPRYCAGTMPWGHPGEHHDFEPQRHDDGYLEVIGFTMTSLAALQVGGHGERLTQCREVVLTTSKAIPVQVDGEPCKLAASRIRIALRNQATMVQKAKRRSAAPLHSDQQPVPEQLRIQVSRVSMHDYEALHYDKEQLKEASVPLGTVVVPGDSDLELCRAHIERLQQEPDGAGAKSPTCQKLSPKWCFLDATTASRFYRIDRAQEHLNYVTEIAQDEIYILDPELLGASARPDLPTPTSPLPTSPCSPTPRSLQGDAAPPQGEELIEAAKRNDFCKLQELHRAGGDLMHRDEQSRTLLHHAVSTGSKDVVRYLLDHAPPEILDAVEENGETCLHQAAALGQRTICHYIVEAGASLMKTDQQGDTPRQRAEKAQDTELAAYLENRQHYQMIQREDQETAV
# test: Human DGKζ kinase activity inhibition assay (ADP-Glo)
# Type: biochemical
# particulars: in vitro human DGKζ kinase activity inhibition assay; read-out: IC50
quantity: IC50 (nM)
Write the number in nM without appending the unit.

Request: Please look up its IC50: CC(C(N)=O)N(c1ccc(F)cc1)c1nc(N)c(C(=O)c2ccc(OCC(=O)NCC(O)CO)cc2)s1 (racemic) [Example 147]
Result: 291

Request: Which IC50 is reported for this compound? CC(C(N)=O)N(c1ccc(OC(F)F)c(F)c1)c1nc(N)c(C(=O)c2ccncc2)s1 (racemic) [Example 208]
Result: 672

Request: Looking for the measured IC50 of CC(C(N)=O)N(c1ccc(Cl)c(F)c1)c1nc(N)c(C(=O)c2ccc(O)cc2)s1 (single isomer, unassigned; enantiomer 1) [Example 289] , can you help?
Result: 10

Request: Endpoint output: IC50 of CC(C(N)=O)N(c1ccc(F)cc1)c1nc(N)c(C(=O)c2ccc(OCC(=O)NCCN3CCCCC3)cc2)s1 (racemic) [Example 89] . Value?
Result: 131
